The reported numbers originate from PubChem BioAssay (NCI).

# Test system: A549 NSCLC
# protocol summary: NCI tumour cell line growth inhibition, 48 h
measure name: TGI

molecule | observed
O=C1/C(=C/c2ccccc2Cl)COc2ccc(Br)cc21 | > 100 µM
COc1cc2c3c(n(CCCN=[N+]=[N-])c(=O)c2cc1OC)-c1ccccc1C3=O | > 100 µM
COc1cccc([C@@H]2C/C(=N\NC(=O)C(=O)N[C@@H](C)c3ccccc3)c3ccccc3N2)c1 | > 100 µM
CCOC(=O)c1c(CN2CCNCC2)nc2ccc(Cl)cc2c1-c1ccccc1 | 17.7 µM
Brc1ccc(-c2[nH]c3ccccc3c2/C=N\Nc2ccc(-c3nc4ccccc4[nH]3)cc2)cc1 | > 100 µM
N#C/C(c1nc2ccccc2[nH]1)=c1\s/c(=C/c2ccccc2)c(=O)n1-c1ccccc1 | > 100 µM
O/N=C1/CCCC/C1=C\c1ccc(Cl)c(Cl)c1 | > 100 µM
CC(C)CNC1=NCC(C)S1 (stereo unspecified) | > 100 µM
N#CC(NNC(=O)Cc1ccccc1)c1ccc([N+](=O)[O-])cc1 (stereo unspecified) | > 100 µM
O=C1OC(c2ccc(O)cc2)(c2ccc(O)cc2)c2ccc(Cl)c3cccc1c23 (tested in a mixture with another compound) | > 75 µM
CC(C)(C)c1cc(C[P+](c2ccccc2)(c2ccccc2)c2ccccc2)cc(C(C)(C)C)c1O | 11 µM
CCCCN(CCCC)P(=O)(Oc1ccccc1)Oc1ccccc1 | 19.6 µM
CC(C)N(C(=O)C12C3C4C5C3C1(C(=O)O)C5C42)C(C)C (stereo unspecified) | > 100 µM
c1ccc(CSC(SCc2ccccc2)c2cccc3ccccc23)cc1 | > 10 µM
Nc1nc(Cl)c(N)c(NCC2(CO)CCC(OCc3ccccc3)C2)n1 (stereo unspecified) | > 100 µM
Cc1ccc(S(=O)(=O)N(CCN)c2cc3c4c(c2)Oc2cccc5c2C4c2c(cccc2O3)O5)cc1 | > 100 µM
COC(=O)C(Cc1nc2ccc(Cl)cc2[nH]c1=O)C(=O)C(=O)Nc1cc(C)ccc1C (stereo unspecified) | > 100 µM
C=CCCn1nc(-c2ccccc2)oc1=O | > 100 µM
C/C(O)=C(/C=N/C(=S)Nc1ccccc1)C(=O)Nc1ccccc1C | > 100 µM
COc1cccc(C2=NC(C(C)C)CO2)c1OC (stereo unspecified) | > 100 µM
Cn1c(-c2ccccc2)cc(-c2ccc3c(c2)OCO3)c1-c1ccsc1 | > 100 µM

###

# Test system: SK-MEL-5 melanoma
# protocol summary: NCI tumour cell line growth inhibition, 48 h
measure name: log10 TGI (log10 of the value in µM)

molecule | log10 TGI
Fc1cc2nc3n(c2cc1F)C(c1c(F)cccc1F)SC3 (stereo not given) | 1.54
COc1ccc(C2c3ccc4ccccc4c3Oc3ncn(CCCn4ccnc4)c(=N)c32)cc1OC (stereo not given) | 0.49
CN1CCN(C)C1c1ccc(C2N(C)CCN2C)cc1 | 1.95
COc1cccc2c1C(=O)c1c(O)c3c(c(O)c1C2=O)C[C@](O)(C(=O)CO)C[C@H]3O[C@@H]1C[C@@H](NC(=O)CCCN(C)C2(c3ccc(F)cc3)CC3CCC2C3)[C@H](O)[C@@H](C)O1 (stereo not given in full) | 0.20
CCOc1ccc(-c2nc3ccc(-c4nc5ccc(N6CCN(C)CC6)cc5[nH]4)cc3[nH]2)cc1 | 0.15
O=C(Nc1ccc(I)cc1F)c1cc(Br)ccc1O | -0.15
CCCCN(CCCC)P(=O)(Oc1ccccc1)Oc1ccccc1 | 1.37
O/N=C1/CCCC/C1=C\c1ccc(Cl)c(Cl)c1 | 1.55
O=C(NC(CS)C(=O)O)c1c2ccccc2nc2ccccc12 (stereo not given) | 1.11
O=C1c2ccccc2CC12Cc1cc3c(cc1C2)CCC3 | 1.55
N#CC1(CCCI)CCCC1 | 1.41
NC(=O)c1cn(C2CC(O)C(CO)O2)c2ncnc(N)c12 (stereo not given) | 1.50
Cc1csc2nc(-c3cccc([N+](=O)[O-])c3)c(/C=N/N=C(N)N)n12 | 0.44
CCOC(=O)C1=C(C(=O)OCC)SC2(S1)C(C(=O)OCC)=C(C(=O)OCC)Sc1c2ssc1=O | 0.72
COc1ccc(C2(Cl)C(Cl)(C(F)(F)F)C2(Cl)C(F)(F)F)cc1 (stereo not given) | 1.34
O=C(CCN1CCCCC1)Nc1ccc2c(c1)C(=O)c1ccc(NC(=O)CCN3CCCCC3)cc1C2=O | 1.01
Cc1cccc2c(=O)c3c(sc12)c(NCCCNCCO)nc1ccccc13 | 0.52
CCc1cccc(C(C)C)c1NC(=O)/C(=N\NC(N)=O)C(C(=O)OC)c1cnc2ccccc2n1 (stereo not given) | 1.55
COc1ccc(C(=O)/C=C/c2cc(-c3ccc(OC)c(OC)c3)n[nH]2)cc1OC | 0.47
COc1cc2c3c(n(CCCN=[N+]=[N-])c(=O)c2cc1OC)-c1ccccc1C3=O | 0.97
